FYI, the data here is from ChEMBL document CHEMBL2046398.

# testedOn: Free fatty acid receptor 1 (Homo sapiens)
# experimentDescription: Displacement of 3-[4-({2',6'-dimethyl-6-[(4-[3H])-phenylmethoxy]biphenyl-3-yl}methoxy)phenyl]propanoic acid from human GPR40 expressed in CHO cells after 90 mins by liquid scintillation counting in the presence of 0.2% BSA
# Assay type: cell-based
Measured Ki, listed per entry for reference.
observable: Ki (nM)

1. Cc1cc(OC2CCS(=O)(=O)CC2)cc(C)c1-c1cccc(COc2ccc3c(c2)OC[C@H]3CC(=O)O)c1 ... 36
2. Cc1cc(OC2CCS(=O)(=O)CC2)c(F)c(C)c1-c1cccc(COc2ccc3c(c2)OC[C@H]3CC(=O)O)c1 ... 31
3. Cc1cc(OC2CCS(=O)(=O)CC2)cc(C)c1-c1cccc(COc2ccc3c(c2)OCC3CC(=O)O)c1 (racemic) ... 83
4. CCS(=O)(=O)CCOc1cc(C)c(-c2cccc(COc3ccc4c(c3)OC[C@H]4CC(=O)O)c2)c(C)c1 ... 37

====

# experimentDescription: Lipophilicity, log D of the compound at pH 7.4 by HPLC analysis
# Format: physicochemical
# protocolConditions: buffer
Labelling: logD reported below 3 becomes Met; at or above becomes Not met.

1) Cc1cc(OCC2(C)COC2)cc(C)c1-c1cccc(COc2ccc3c(c2)OC[C@H]3CC(=O)O)c1 ... Not met
2) CCOCCOc1cc(C)c(-c2cccc(COc3ccc4c(c3)OC[C@@H]4CC(=O)O)c2)c(C)c1 ... Not met
3) CCOCCOc1cc(C)c(-c2cccc(COc3ccc4c(c3)OC[C@H]4CC(=O)O)c2)c(C)c1 ... Not met
4) Cc1cc(OC2CCN(C)CC2)cc(C)c1-c1cccc(COc2ccc3c(c2)OC[C@H]3CC(=O)O)c1.Cl ... Not met
5) Cc1cc(OCCCS(C)(=O)=O)c(F)c(C)c1-c1cccc(COc2ccc3c(c2)OC[C@H]3CC(=O)O)c1 ... Met
6) CCOCCOc1cc(C)c(-c2cccc(COc3ccc4c(c3)OCC4CC(=O)O)c2)c(C)c1 (racemic) ... Not met

====

# Tested on: HepG2
# experimentDescription: Induction of apoptosis in human HepG2 cells assessed as caspase 3/7 activity at 30 uM after 1 day by CaspaseGlo assay relative to staurosporine
# Type: cell-based
# protocolConditions: hepg2, 24 h
observable: Activity (%)

1) Cc1cc(OC2CCS(=O)(=O)CC2)cc(C)c1-c1cccc(COc2ccc3c(c2)OCC3CC(=O)O)c1 (racemic) ... 0.4
2) Cc1cc(OC2CCS(=O)(=O)CC2)c(F)c(C)c1-c1cccc(COc2ccc3c(c2)OC[C@H]3CC(=O)O)c1 ... 7.9
3) Cc1cc(OCCCS(C)(=O)=O)c(Cl)c(C)c1-c1cccc(COc2ccc3c(c2)OC[C@H]3CC(=O)O)c1 ... 8.3
4) Cc1cc(OCC2(O)CCS(=O)(=O)CC2)cc(C)c1-c1cccc(COc2ccc3c(c2)OC[C@H]3CC(=O)O)c1 ... -1.8
5) Cc1cc(OC2CCS(=O)(=O)CC2)cc(C)c1-c1cccc(COc2ccc3c(c2)OC[C@@H]3CC(=O)O)c1 ... 1.3
6) CCOCCOc1cc(C)c(-c2cccc(COc3ccc4c(c3)OC[C@H]4CC(=O)O)c2)c(C)c1 ... 1.5
7) Cc1cc(OCCCS(C)(=O)=O)cc(C)c1-c1cccc(COc2ccc3c(c2)OC[C@H]3CC(=O)O)c1 ... -2.1
8) Cc1nc(C)c(COc2cc(C)c(-c3cccc(COc4ccc5c(c4)OC[C@H]5CC(=O)O)c3)c(C)c2)s1 ... 23.1
9) Cc1cc(OCC2(C)COC2)cc(C)c1-c1cccc(COc2ccc3c(c2)OC[C@H]3CC(=O)O)c1 ... 21.1
10) Cc1cc(OCc2cccc3nccn23)cc(C)c1-c1cccc(COc2ccc3c(c2)OC[C@H]3CC(=O)O)c1 ... 17.7
11) Cc1c(Cl)c(OCCCS(C)(=O)=O)c(Cl)c(C)c1-c1cccc(COc2ccc3c(c2)OC[C@H]3CC(=O)O)c1 ... 16.1
12) Cc1cc(OC2CCN(C)CC2)cc(C)c1-c1cccc(COc2ccc3c(c2)OC[C@H]3CC(=O)O)c1.Cl ... -1.3
13) Cc1cc(OCCCN2CCCC2=O)cc(C)c1-c1cccc(COc2ccc3c(c2)OC[C@H]3CC(=O)O)c1 ... 3.9
14) CCS(=O)(=O)CCOc1cc(C)c(-c2cccc(COc3ccc4c(c3)OC[C@H]4CC(=O)O)c2)c(C)c1 ... -1.3
15) Cc1cc(OCCCS(C)(=O)=O)c(F)c(C)c1-c1cccc(COc2ccc3c(c2)OC[C@H]3CC(=O)O)c1 ... -1.1

====

# testedOn: Free fatty acid receptor 1 (Homo sapiens)
# experimentDescription: Displacement of 3-[4-({2',6'-dimethyl-6-[(4-[3H])-phenylmethoxy]biphenyl-3-yl}methoxy)phenyl]propanoic acid from human GPR40 expressed in CHO cells after 90 mins by liquid scintillation counting in the presence of 0.2% BSA
pKi: −log10 of the molar value.
Reported pKi values for the following compounds.
observable: pKi

1. Cc1cc(OCc2cccc3nccn23)cc(C)c1-c1cccc(COc2ccc3c(c2)OC[C@H]3CC(=O)O)c1 ... 7.82
2. Cc1cc(OCCCN2CCCC2=O)cc(C)c1-c1cccc(COc2ccc3c(c2)OC[C@H]3CC(=O)O)c1 ... 7.51
3. Cc1c(C)c(-c2cccc(COc3ccc4c(c3)OC[C@H]4CC(=O)O)c2)c(C)c(C)c1OCCCS(C)(=O)=O ... 7.48

====

# testedOn: Free fatty acid receptor 1 (Homo sapiens, UniProt O14842)
# Sequence (O14842 whole entry): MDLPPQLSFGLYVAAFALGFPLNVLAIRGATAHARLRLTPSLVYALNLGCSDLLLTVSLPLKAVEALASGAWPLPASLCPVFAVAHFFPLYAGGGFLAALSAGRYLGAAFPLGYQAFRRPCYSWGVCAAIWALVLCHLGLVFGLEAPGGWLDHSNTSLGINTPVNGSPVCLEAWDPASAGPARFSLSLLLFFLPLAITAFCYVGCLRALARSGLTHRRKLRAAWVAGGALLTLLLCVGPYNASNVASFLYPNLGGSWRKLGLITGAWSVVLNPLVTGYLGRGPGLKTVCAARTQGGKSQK
# experimentDescription: Agonist activity at human GP40 receptor expressed in CHO cells assessed as increase in intracellular calcium level at 10 uM for 90 secs by FLIPR assay in the presence of 0.1% BSA relative to gamma-linolenic acid
# Assay type: functional, cell-based
Listed here: items and their measured Efficacy.
observable: Efficacy (%)

1. Cc1cc(OCCCN2CCCC2=O)cc(C)c1-c1cccc(COc2ccc3c(c2)OC[C@H]3CC(=O)O)c1 ... 107
2. Cc1cc(OC2CCN(C)CC2)cc(C)c1-c1cccc(COc2ccc3c(c2)OC[C@H]3CC(=O)O)c1.Cl ... 107
3. CCOCCOc1cc(C)c(-c2cccc(COc3ccc4c(c3)OC[C@H]4CC(=O)O)c2)c(C)c1 ... 103
4. Cc1cc(OCCCS(C)(=O)=O)c(F)c(C)c1-c1cccc(COc2ccc3c(c2)OC[C@H]3CC(=O)O)c1 ... 104
5. Cc1cc(OCCCS(C)(=O)=O)cc(C)c1-c1cccc(COc2ccc3c(c2)OC[C@H]3CC(=O)O)c1 ... 107
6. Cc1c(C)c(-c2cccc(COc3ccc4c(c3)OC[C@H]4CC(=O)O)c2)c(C)c(C)c1OCCCS(C)(=O)=O ... 104
7. Cc1cc(OC2CCS(=O)(=O)CC2)c(F)c(C)c1-c1cccc(COc2ccc3c(c2)OC[C@H]3CC(=O)O)c1 ... 104
8. CCOCCOc1cc(C)c(-c2cccc(COc3ccc4c(c3)OC[C@@H]4CC(=O)O)c2)c(C)c1 ... 103
9. Cc1cc(OCC2(C)COC2)cc(C)c1-c1cccc(COc2ccc3c(c2)OCC3CC(=O)O)c1 (racemic) ... 103
